Values from patent US20220177594A1

Target: T1, ANTIBODY EXPRESSION CONTROL
T1 construct: also called mouse anti-canine antibody (capture reagent of the expression control ELISA)
Experiment: SPR Biacore, expression control
value-type: kon (M⁻¹ s⁻¹)
Give a bare numeral; the unit M⁻¹ s⁻¹ is implied.

binder="Mu_19F07_VH (SEQ ID NO: 47)_Y60A (antibody, V domains shown) VH: EVKLVESEGGLVQPGSSMKLSCTASGFTFSDYYMAWVRQVPEKGLEWVANINYDGSSTYALDSLKSRFIISRDNAKNILYLQMSSLKSEDTATYYCARGLTWDFDVWGTGTTVTVSS VL: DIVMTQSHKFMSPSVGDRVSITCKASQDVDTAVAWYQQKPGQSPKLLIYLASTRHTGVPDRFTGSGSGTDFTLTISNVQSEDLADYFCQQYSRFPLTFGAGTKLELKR" readout_number=150000

Please turn your attention to the following entry.
// sample Mu_02D09_VH (SEQ ID NO: 31)_D102A (antibody, V domains shown) VH: EVQLVESGGGLVKPGGSLTLSCAASGFTFSDYGMHWLRQAPEKGLEWVAYISSGSRAVFFADTVKGRFTISRDNAKNTLFLQMTSLRSDDTAMYYCARDRYAGRGFAYWGQGTLVTVSA VL: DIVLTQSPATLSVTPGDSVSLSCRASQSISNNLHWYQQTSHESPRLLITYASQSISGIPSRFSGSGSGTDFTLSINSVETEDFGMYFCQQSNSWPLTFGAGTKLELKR , its kon was 135000
